Assay: Cytotoxicity in stimulated PBMCs, 5 days
Conditions: human, stimulated PBMCs
experimental_readout: CC50 at 5 days

Request: Answer with the recorded CC50 at 5 days for the compound listed here: CCOc1nc(N)nc2c1ncn2[C@@H]1O[C@@H]2COP(=O)(OC(C)C)O[C@H]2[C@@]1(C)F (stereo partly drawn) [PSI-938]
Result: > 100 µM

Request: For the compound [N-]=[N+]=N[C@]1(CO)O[C@@H](n2ccc(N)nc2=O)[C@H](O)[C@@H]1O [4′-AzidoC, 4′-azido cytidine] , report CC50 at 5 days.
Result: > 100 µM

Request: Give the reported CC50 at 5 days for this compound. O=C(N[C@H](CO)[C@H](O)c1ccc([N+](=O)[O-])cc1)C(Cl)Cl [Chloramphenicol]
Result: > 100 µM

Cited source for all entries: paper PMC4750701
